Test: Cell Viability - LYMP1-002 - Assay at 16 hr (AID 948)
Details: LYMP1-002 lymphoblastoid cell viability; series mostly up to 92.2 µM
Inconclusive results are not listed. Activity calls are given as the source filed them. The call rests on the fitted dose curve; in most records, active means well fitted cell-killing curve with a large enough effect; inconclusive means small, poorly fitted or top-dose-only effect; inactive means flat fitted curve, though single readings scatter.
Classes used: y (active), n (inactive)

> print(dat)
                                    compound  class.label
 1  CN(C)c1ccc(C(=C2C=CC(=[N+](C)C)C=C2)c2ccccc2)cc1            y
 2  O=C1CN(/N=C/c2ccc([N+](=O)[O-])o2)C(=O)N1            n
 3  CC(C)NCC(O)COc1cccc2ccccc12 (configuration not stated)            n
 4                      CCCOC(=O)c1ccc(O)cc1            n
 5               O=c1cc(-c2ccccc2)oc2ccccc12            n
 6                        S=c1[nH]c2ccccc2s1            n
 7                 N=C1N=C(N)c2cc3ccccc3cc21            y
 8                      CN1CCC[C@H]1c1cccnc1            n
 9            c1ccc2sc(SSc3nc4ccccc4s3)nc2c1            n
10                   CCCCCCCCCCCCCCCCCC(=O)O            n
11  COc1cc(/C=C/C(=O)CC(=O)/C=C/c2ccc(O)c(OC)c2)ccc1O            y
12              CN(C)c1ccc(N=NS(=O)(=O)O)cc1            n
